Listed here: items and their measured TIME.
- experiment.description: Antioxidant activity assessed as time required to inhibit Cu2+-induced human LDL peroxidation; further: test concentration or dose not given here
- Format: functional
Form entry: value (h) — number only.

Oc1ccc(/C=C/c2ccccc2)c(O)c1; 0.883
Oc1ccc(/C=C/c2ccc(O)cc2O)cc1; 0.717
Oc1cc(O)cc(/C=C/c2ccccc2)c1; 0.717

Switching to the query record.
Report TIME for Oc1ccc(/C=C/c2cc(O)cc(O)c2)cc1 please.
0.967

###

Listed here: items and their measured EC50.
- System: Liver microsome
- experiment.description: Antioxidant activity in Rattus norvegicus Wistar (rat) liver microsomes assessed as inhibition of Fe2+/ascorbate-induced lipid peroxidation incubated for 10 min prior to Fe2+/ascorbate induction measured after 60 min by TBARS assay
- Format: functional
Form entry: value (µM) — number only.

Answered cases to consult:
COc1cc(/C=C/c2ccc(O)cc2)cc(OC)c1 [PTEROSTILBENE]; 355
Oc1ccc(/C=C\c2cc(O)cc(O)c2)cc1 [CIS-RESVERATROL]; 241
COc1ccc(/C=C/c2cc(O)cc(O)c2)cc1 [RESVERATROL 4'-METHYL ETHER]; 661

Switching to the query record.
Report EC50 for Oc1ccc(/C=C/c2cc(O)cc(O)c2)cc1 [RESVERATROL] please.
135

###

- experiment.description: Antioxidant activity assessed as superoxide scavenging activity in riboflavin light-NBT system
- Assay type: functional
recorded.metric: log10 of IC50 (log10 of the value in µg/mL)
In our notation, the value equals log10 of IC50 in µg/mL.

Answered cases to consult:
Oc1ccc(/C=C/c2cc(O)cc(O)c2)cc1 [RESVERATROL]; 2.03
O=C(/C=C/c1cc(O)c(O)c(O)c1)Oc1cc(O)cc(/C=C/c2ccc(O)cc2)c1; 1.00
O=C(Oc1cc(O)cc(/C=C/c2ccc(O)cc2)c1)c1cc(O)c(O)c(O)c1; 1.20
O=C(/C=C/c1ccc(O)c(O)c1)Oc1cc(O)cc(/C=C/c2ccc(O)cc2)c1; 0.96
Oc1cc(/C=C/c2cc(O)c(O)c(Br)c2)cc(O)c1O; 0.91
Oc1ccc(/C=C/c2cc(O)c(O)c(O)c2)cc1O; 0.48

Report log10 of IC50 for Oc1cc(/C=C/c2cc(O)c(O)c(O)c2)cc(O)c1O please.
-0.05

###

- experiment.description: Antioxidant activity assessed as time required to inhibit Cu2+-induced human LDL peroxidation; further: test concentration or dose not given here
- Format: functional
recorded.metric: TIME (h)
Form entry: value (h) — number only.

Answered cases to consult:
Oc1ccc(/C=C/c2ccc(O)cc2)cc1; 1.28
Oc1ccc(/C=C/c2ccc(O)c(O)c2)cc1; 1.75
COc1cc(/C=C/c2ccc(O)c(OC)c2)ccc1O; 1.47
Oc1ccc(/C=C/c2ccc(O)c(O)c2)cc1O; 1.78

Report TIME for Oc1ccc(/C=C/c2ccccc2)cc1O please.
1.77
